System: Liver microsome
Assay: Half life in human liver microsomes
Type: ADME
For each of the compounds below, state its t1/2.
Answers are plain numbers, in min.

Items follow; give t1/2 for each.
1. Cc1c[nH]c2ncnc(-c3ccc(NC(=O)N(CCO)c4cccc(Cl)c4)cc3)c12
2. Cc1c[nH]c2ncnc(-c3ccc(NC(=O)Nc4cccc(C(=O)NC(C)C)c4)c(F)c3)c12
3. Cc1c[nH]c2ncnc(-c3ccc(NC(=O)N(CCO)c4ccccc4)cc3)c12
4. Cc1[nH]c2ncnc(-c3ccc(NC(=O)N(CCO)c4ccc(Cl)cc4)c(F)c3)c2c1C
5. Cc1[nH]c2ncnc(-c3ccc(NC(=O)N(CCN(C)C)c4ccc(Cl)cc4)c(F)c3)c2c1C
6. Cc1[nH]c2ncnc(-c3ccc(NC(=O)Nc4cccc(C(=O)NC(C)C)c4)cc3)c2c1C
7. Cc1ccc(N(CCO)C(=O)Nc2ccc(-c3ncnc4[nH]cc(C)c34)cc2)cc1
8. COc1cccc(N(CCO)C(=O)Nc2ccc(-c3ncnc4[nH]cc(C)c34)cc2)c1

22
27
87
99
19
47
56
38

Items follow; give t1/2 for each.
1. Cc1c[nH]c2ncnc(-c3ccc(NC(=O)N(CCO)c4ccc(F)cc4)cc3)c12
2. COc1ccc(N(CCO)C(=O)Nc2ccc(-c3ncnc4[nH]cc(C)c34)cc2)cc1

44
56
